For each of the molecules below, state its log10 IC50.
# Tested on: XF498
# RUN DESCRIPTION: Cytotoxicity against human XF498 cells after 3 days by SRB assay
# Assay type: functional, cell-based
# DETAILS: XF498, 72 h
Could you please treat all values as log10 of IC50 in nM?

# annotated cases, reported log10 IC50 shown
# STRUCTURE NOTATION, OBSERVED VALUE
records = [
    ("CCCCn1nnc2c1C(=O)c1cnncc1C2=O", 2.26),
    ("COc1cccc2c1C(=O)c1c(O)c3c(c(O)c1C2=O)C[C@@](O)(C(=O)CO)C[C@@H]3O[C@H]1C[C@H](N)[C@H](O)[C@H](C)O1", 1.64),
    ("CCCn1nc2c(n1)C(=O)c1cnncc1C2=O", 1.26),
]

// each listed molecule needs a value for log10 IC50
1. CC(C)Cn1nc2c(n1)C(=O)c1cnncc1C2=O
2. Cn1nnc2c1C(=O)c1cnncc1C2=O

[1.28, 1.54]

====

# Test system: SNU-638
# RUN DESCRIPTION: Cytotoxicity against human SNU638 cells after 3 days by SRB assay
# Type: functional, cell-based
# DETAILS: SNU-638, 72 h
For each of the compounds below, state its pIC50.
Give bare numbers, as −log10 of the molar value.

# annotated cases, reported pIC50 shown
# COMPOUND, pIC50
rows = [
    ("Cn1nnc2c1C(=O)c1cnncc1C2=O", 6.62),
    ("CCCCn1nnc2c1C(=O)c1cnncc1C2=O", 6.81),
]

// each listed compound needs a value for pIC50
1. COc1cccc2c1C(=O)c1c(O)c3c(c(O)c1C2=O)C[C@@](O)(C(=O)CO)C[C@@H]3O[C@H]1C[C@H](N)[C@H](O)[C@H](C)O1
2. COc1cc([C@@H]2c3cc4c(cc3[C@@H](O[C@@H]3O[C@@H]5CO[C@@H](C)O[C@H]5[C@H](O)[C@H]3O)[C@H]3COC(=O)[C@H]23)OCO4)cc(OC)c1O [ETOPOSIDE]
3. CCCCn1nc2c(n1)C(=O)c1cnncc1C2=O
4. CC(C)n1nnc2c1C(=O)c1cnncc1C2=O

[7.28, 6.64, 7.30, 7.24]

====

# Test system: SK-MEL-2
# RUN DESCRIPTION: Cytotoxicity against human SK-MEL-2 cells after 3 days by SRB assay
# Format: functional, cell-based
# DETAILS: SK-MEL-2, 72 h
For each of the compounds below, state its IC50.
Numbers only, in nM.

# annotated cases, reported IC50 shown
# COMPOUND, IC50 (nM)
data = [
    ("CCCn1nc2c(n1)C(=O)c1cnncc1C2=O", 9),
    ("COc1cc([C@@H]2c3cc4c(cc3[C@@H](O[C@@H]3O[C@@H]5CO[C@@H](C)O[C@H]5[C@H](O)[C@H]3O)[C@H]3COC(=O)[C@H]23)OCO4)cc(OC)c1O [ETOPOSIDE]", 5720),
    ("CCn1nc2c(n1)C(=O)c1cnncc1C2=O", 4),
]

Any idea what IC50 was measured for CCCn1nnc2c1C(=O)c1cnncc1C2=O ? 20

====

# ASSAY SYSTEM: UniProt:P11388
# Sequence (P11388 whole entry): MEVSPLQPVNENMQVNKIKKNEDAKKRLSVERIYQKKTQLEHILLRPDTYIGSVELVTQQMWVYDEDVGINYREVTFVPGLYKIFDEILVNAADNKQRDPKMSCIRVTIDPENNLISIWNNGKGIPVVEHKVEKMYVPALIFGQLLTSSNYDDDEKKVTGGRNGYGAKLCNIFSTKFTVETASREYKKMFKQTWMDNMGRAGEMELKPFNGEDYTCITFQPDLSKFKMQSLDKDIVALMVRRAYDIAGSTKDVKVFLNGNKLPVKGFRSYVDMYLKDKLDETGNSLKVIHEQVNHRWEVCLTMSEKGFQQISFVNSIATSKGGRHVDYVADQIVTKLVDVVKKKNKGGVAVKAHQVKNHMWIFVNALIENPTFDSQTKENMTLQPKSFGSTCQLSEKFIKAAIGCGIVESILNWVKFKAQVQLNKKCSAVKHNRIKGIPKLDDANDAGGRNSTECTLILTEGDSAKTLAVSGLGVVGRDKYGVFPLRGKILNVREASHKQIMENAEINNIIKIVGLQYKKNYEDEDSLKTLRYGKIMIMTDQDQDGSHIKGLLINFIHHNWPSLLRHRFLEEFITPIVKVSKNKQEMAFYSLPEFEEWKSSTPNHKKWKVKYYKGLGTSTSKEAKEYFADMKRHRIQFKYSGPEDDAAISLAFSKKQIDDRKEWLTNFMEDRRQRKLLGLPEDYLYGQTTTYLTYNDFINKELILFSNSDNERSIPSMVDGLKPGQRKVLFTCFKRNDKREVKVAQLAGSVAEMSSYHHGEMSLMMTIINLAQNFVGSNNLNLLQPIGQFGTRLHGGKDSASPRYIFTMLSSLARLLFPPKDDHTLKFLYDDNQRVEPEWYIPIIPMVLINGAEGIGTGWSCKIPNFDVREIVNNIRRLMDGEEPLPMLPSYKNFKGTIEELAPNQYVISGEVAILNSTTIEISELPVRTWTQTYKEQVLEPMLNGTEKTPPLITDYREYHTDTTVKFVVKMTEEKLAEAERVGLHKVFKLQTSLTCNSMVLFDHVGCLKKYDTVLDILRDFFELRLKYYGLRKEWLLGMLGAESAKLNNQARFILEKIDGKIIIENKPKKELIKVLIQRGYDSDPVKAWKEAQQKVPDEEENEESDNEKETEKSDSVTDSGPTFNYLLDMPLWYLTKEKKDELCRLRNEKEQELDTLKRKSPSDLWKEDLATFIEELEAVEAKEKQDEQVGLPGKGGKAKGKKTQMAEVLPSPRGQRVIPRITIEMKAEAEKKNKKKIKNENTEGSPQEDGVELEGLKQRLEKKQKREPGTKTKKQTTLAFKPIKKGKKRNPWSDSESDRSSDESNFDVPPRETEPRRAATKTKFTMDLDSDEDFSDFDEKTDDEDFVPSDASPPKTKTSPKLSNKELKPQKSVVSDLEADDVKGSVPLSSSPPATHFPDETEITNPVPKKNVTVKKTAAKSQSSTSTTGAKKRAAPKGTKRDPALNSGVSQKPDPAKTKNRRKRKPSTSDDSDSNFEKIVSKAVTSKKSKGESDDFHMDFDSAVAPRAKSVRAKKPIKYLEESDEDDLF
# RUN DESCRIPTION: Inhibition of human recombinant topoisomerase 2 by decatenation assay
For each of the compounds below, state its IC50.
One number for each entry, in µM.

# STRUCTURE NOTATION, UNIT DESCRIPTOR, IC50
rows = [
    ("CCn1nc2c(n1)C(=O)c1cnncc1C2=O", "µM", 61.5),
    ("CC(C)n1nc2c(n1)C(=O)c1cnncc1C2=O", "µM", 54.5),
    ("CC(C)Cn1nnc2c1C(=O)c1cnncc1C2=O", "µM", 29.8),
    ("COc1ccc(Cn2nnc3c2C(=O)c2cnncc2C3=O)cc1", "µM", 28.6),
    ("O=C1c2cnncc2C(=O)c2[nH]nnc21", "µM", 52.8),
    ("CCCn1nnc2c1C(=O)c1cnncc1C2=O", "µM", 49),
]

Now consider the entry below.
Any idea what IC50 was measured for Cn1nc2c(n1)C(=O)c1cnncc1C2=O ? 55.6
